System: P-gp (human MDR1)
Test: in vitro
Conditions: dog, MDCK-MDR1, pH 7.4, Papp A2B Replicate 1, 10 µM, UPLC-MS/MS
For each of the compounds below, state its Papp A→B at 1 h, 10 µM.
One number for each entry, in ×10⁻⁶ cm/s.

>  <compound>
CC(C)NCC(O)COc1cccc2ccccc12 (centres unmarked) [propranolol]

>  <unit_of_measure>
×10⁻⁶ cm/s

>  <Papp A→B at 1 h, 10 µM>
34.1

$$$$

Query compound follows.
Field: Papp A→B at 1 h, 10 µM (P-gp (human MDR1)). Entry: COc1cc2nc(N3CCN(C(=O)c4ccco4)CC3)nc(N)c2cc1OC [prazosin]
2.48

---

System: P-gp (human MDR1)
Test: in vitro
Details: dog, MDCK-MDR1, pH 7.4, Papp basal to apical
measured_attribute: Papp B→A at 1 h, 20 µM (×10⁻⁶ cm/s)
Answers are plain numbers, in ×10⁻⁶ cm/s.

// lookup Papp B→A at 1 h, 20 µM for N=C(N)c1ccc(OCCCCCOc2ccc(C(=N)N)cc2)cc1
0.418

---

Target: cloned hKir2.1 potassium channels (Homo sapiens, UniProt P63252)
Sequence (P63252 whole entry): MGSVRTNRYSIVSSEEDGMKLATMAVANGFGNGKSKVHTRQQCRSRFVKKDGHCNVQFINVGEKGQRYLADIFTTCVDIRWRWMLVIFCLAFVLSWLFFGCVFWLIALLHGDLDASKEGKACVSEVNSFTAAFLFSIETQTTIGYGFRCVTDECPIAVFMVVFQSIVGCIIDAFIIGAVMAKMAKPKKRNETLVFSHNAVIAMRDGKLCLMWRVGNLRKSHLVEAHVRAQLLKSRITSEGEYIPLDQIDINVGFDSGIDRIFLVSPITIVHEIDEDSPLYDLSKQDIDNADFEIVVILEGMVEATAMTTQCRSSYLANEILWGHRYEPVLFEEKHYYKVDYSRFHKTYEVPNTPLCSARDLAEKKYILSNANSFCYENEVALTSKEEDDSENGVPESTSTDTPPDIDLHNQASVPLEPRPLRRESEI
Test: cell-based
pIC50: −log10 of the molar value.
measured_attribute: pIC50

// lookup pIC50 for N=C(N)c1ccc(OCCCCCOc2ccc(C(=N)N)cc2)cc1 [Pentamidine, 1,5-bis-4ρ-amidinophenoxypentane]
< 5.00

---

Test system: P-gp (human MDR1)
Test: in vitro
Settings: dog, MDCK-MDR1, pH 7.4, Papp B2A Replicate 2
measured_attribute: Papp B→A at 1 h, 10 µM (×10⁻⁶ cm/s)
Answers are plain numbers, in ×10⁻⁶ cm/s.

// lookup Papp B→A at 1 h, 10 µM for N=C(N)c1ccc(OCCCCCOc2ccc(C(=N)N)cc2)cc1
0.357

---

Tested on: P-gp (human MDR1)
Assay: in vitro
Settings: dog, MDCK-MDR1, pH 7.4, Papp B2A Replicate 2, 10 µM, UPLC-MS/MS
measured_attribute: Papp B→A at 1 h, 10 µM (×10⁻⁶ cm/s)
Give bare numbers, in ×10⁻⁶ cm/s.

>  <compound>
COc1cc2nc(N3CCN(C(=O)c4ccco4)CC3)nc(N)c2cc1OC

>  <Papp B→A at 1 h, 10 µM / ×10⁻⁶ cm/s>
70.7

$$$$

Query compound follows.
Field: Papp B→A at 1 h, 10 µM (P-gp (human MDR1)). Entry: CC(C)NCC(O)COc1cccc2ccccc12 (centres unmarked)
41.6

---

Target: Muscarinic, Non-selective, Central
Assay: CNS side effect panel, [^3H]QNB
Type: binding
Conditions: Muscarinic (central), concentration-response
measured_attribute: pKi
Give bare numbers, as −log10 of the molar value.

// lookup pKi for N=C(N)c1ccc(OCCCCCOc2ccc(C(=N)N)cc2)cc1 [Pentamidine, 1,5-bis-4ρ-amidinophenoxypentane]
6.55

---

Target: Imidazoline, I2 [central]
Experiment: CNS side effect panel, [^3H]2-BFI
Format: binding
Conditions: Imidazoline 1_2, concentration-response
measured_attribute: pKi
Numbers only, as −log10 of the molar value.

// lookup pKi for N=C(N)c1ccc(OCCCCCOc2ccc(C(=N)N)cc2)cc1 [Pentamidine, 1,5-bis-4ρ-amidinophenoxypentane]
9.00

---

System: P-gp (human MDR1)
Assay: in vitro
Conditions: dog, MDCK-MDR1, pH 7.4, Papp B2A Replicate 1, 10 µM, UPLC-MS/MS
measured_attribute: Papp B→A at 1 h, 10 µM (×10⁻⁶ cm/s)
One number for each entry, in ×10⁻⁶ cm/s.

>  <compound>
COc1cc2nc(N3CCN(C(=O)c4ccco4)CC3)nc(N)c2cc1OC

>  <Papp B→A at 1 h, 10 µM [×10⁻⁶ cm/s]>
69.5

$$$$

Field: Papp B→A at 1 h, 10 µM (P-gp (human MDR1)). Entry: CC(C)NCC(O)COc1cccc2ccccc12 (centres unmarked)
41.4

---

Test system: P-gp (human MDR1)
Test: in vitro
Conditions: dog, MDCK-MDR1, pH 7.4, Papp A2B Replicate 2, 10 µM, UPLC-MS/MS
For each of the molecules below, state its Papp A→B at 1 h, 10 µM.
Answers are plain numbers, in ×10⁻⁶ cm/s.

>  <molecule>
CC(C)NCC(O)COc1cccc2ccccc12 (centres unmarked)

>  <assay_value>
28

$$$$

Query molecule follows.
// lookup Papp A→B at 1 h, 10 µM for COc1cc2nc(N3CCN(C(=O)c4ccco4)CC3)nc(N)c2cc1OC
1.96
